# Test system: ATP;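 also: ATP exposure 15 min at 22 °C before imaging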
# PROTOCOL: switch fluorescence ratio, 500 uM ATP over buffer (Cy3 cluster intensity, sum of 5 cycles each) (fold (ratio)); higher = stronger signal-on switching upon ATP binding; sequences stand for … in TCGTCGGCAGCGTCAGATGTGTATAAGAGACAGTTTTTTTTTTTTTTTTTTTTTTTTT…TC
# PROTOCOL CONDITIONS: aptamer strand: ATP DNA aptamer (quencher-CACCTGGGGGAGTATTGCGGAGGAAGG + anchor), 100 nM annealed; ATP concentration: 500 uM
MEASUREMENT KIND: switch fluorescence ratio
Give a plain numeric answer without units written out.

Note down switch fluorescence ratio recorded for TAATATCTTT 0.995

Note down switch fluorescence ratio recorded for GACGGCTGTA 0.991

Note down switch fluorescence ratio recorded for TATATTTTCA 1.01

Note down switch fluorescence ratio recorded for ATGGGGGCCA 0.974

Note down switch fluorescence ratio recorded for TTGTAGTCTT 0.991

Note down switch fluorescence ratio recorded for GTGAGGTGCA 1.01

Note down switch fluorescence ratio recorded for GCGTAATCCG 1.02

Note down switch fluorescence ratio recorded for GGTCAAAGTG 1

Note down switch fluorescence ratio recorded for TTGCCTAAGC 0.974

Note down switch fluorescence ratio recorded for TAAAGAGGTG 1.11

Note down switch fluorescence ratio recorded for GGGTTTAATG 0.96

Note down switch fluorescence ratio recorded for ATAAGGTACG 1.05

Note down switch fluorescence ratio recorded for GCTTGCTTTT 0.989

Note down switch fluorescence ratio recorded for GGTATGCAGG 0.985

Note down switch fluorescence ratio recorded for GAGGGCGCTG 0.973

Note down switch fluorescence ratio recorded for TTAGCGGTGT 1.07

Note down switch fluorescence ratio recorded for TTTAGGCCCC 0.993

Note down switch fluorescence ratio recorded for GTGGGGGGGG 0.995

Note down switch fluorescence ratio recorded for TGATTCTGTG 1.02

Note down switch fluorescence ratio recorded for TCATATTGCG 0.983

Note down switch fluorescence ratio recorded for GGCGCGTTAG 1.02

Note down switch fluorescence ratio recorded for CCCCGGCTGG 1.12

Note down switch fluorescence ratio recorded for GCAAGTAGTT 1.03

Note down switch fluorescence ratio recorded for TTCTAAGGAG 1.02

Note down switch fluorescence ratio recorded for TGCTTGTATT 1.01

Note down switch fluorescence ratio recorded for TGGCTGGGCT 1.03

Note down switch fluorescence ratio recorded for AGGGGGCGCC 1.02

Note down switch fluorescence ratio recorded for GTGAACGGCG 1.06

Note down switch fluorescence ratio recorded for AAATGTTGAT 1.03

Note down switch fluorescence ratio recorded for CGATGTAGTC 1.05

Note down switch fluorescence ratio recorded for CTAGGCCGGG 0.98

Note down switch fluorescence ratio recorded for GCCTTAATCT 1.01

Note down switch fluorescence ratio recorded for ACGTTTGAGT 0.99

Note down switch fluorescence ratio recorded for AAAGACACTC 1.04

Note down switch fluorescence ratio recorded for CGACAGATGT 1.01

Note down switch fluorescence ratio recorded for TTTATGGTTT 1

Note down switch fluorescence ratio recorded for TTTGGTTTGC 0.992

Note down switch fluorescence ratio recorded for TGCCTAACTT 1.02

Note down switch fluorescence ratio recorded for TGAGTGCAAA 0.993

Note down switch fluorescence ratio recorded for TTAAAGGGGG 1.02

Note down switch fluorescence ratio recorded for AATTGGGGTT 1.01

Note down switch fluorescence ratio recorded for GGGGAGGGGG 0.999

Note down switch fluorescence ratio recorded for ACTAGTGCGG 1.01

* * *

# System: ATP;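 also: ATP exposure 15 min at 22 °C before imaging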
# PROTOCOL: switch fluorescence ratio, 500 uM ATP over buffer (Cy3 cluster intensity, sum of 5 cycles each) (fold (ratio)); higher = stronger signal-on switching upon ATP binding; sequences stand for … in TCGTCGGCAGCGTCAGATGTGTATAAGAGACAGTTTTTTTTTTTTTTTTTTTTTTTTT…TC
# PROTOCOL CONDITIONS: aptamer strand: ATP DNA aptamer (quencher-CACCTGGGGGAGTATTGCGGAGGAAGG + anchor), 100 nM annealed; ATP concentration: 500 uM
Give measured switch fluorescence ratio for each item. Keep answers brief.
Give a plain numeric answer without units written out.

Note down switch fluorescence ratio recorded for CCATTTCTGA 1.03

Note down switch fluorescence ratio recorded for GTTGGGTTTG 0.999

Note down switch fluorescence ratio recorded for AATCAAGGCG 1.03

Note down switch fluorescence ratio recorded for ACTCGGGGTG 0.998

Note down switch fluorescence ratio recorded for TAGGATGGTT 0.984

Note down switch fluorescence ratio recorded for TATCCTTTTT 1.03

Note down switch fluorescence ratio recorded for AAAGATTGTT 0.954

Note down switch fluorescence ratio recorded for GATATTATTT 0.998

Note down switch fluorescence ratio recorded for TCACTGAGCT 1.05

Note down switch fluorescence ratio recorded for GTTTGCCAGG 1.01

Note down switch fluorescence ratio recorded for AATGGCTGGG 0.999

Note down switch fluorescence ratio recorded for TTAAGGGACG 0.996

Note down switch fluorescence ratio recorded for TACGTTCAGG 1.02

Note down switch fluorescence ratio recorded for AGAGGGGTAA 0.998

Note down switch fluorescence ratio recorded for TACCCTTCGT 1.11

Note down switch fluorescence ratio recorded for GGGGCAAGAT 1.52

Note down switch fluorescence ratio recorded for CTGGTACGAC 1.13

Note down switch fluorescence ratio recorded for TTGGTGTTGC 0.992

Note down switch fluorescence ratio recorded for AGTATTAATG 1

Note down switch fluorescence ratio recorded for TTCCCTTAAT 1

Note down switch fluorescence ratio recorded for TTTGCGATGG 1.09

Note down switch fluorescence ratio recorded for CCGAAAAGCT 1.17

Note down switch fluorescence ratio recorded for TAAATTGCTT 0.991

Note down switch fluorescence ratio recorded for CAAGTTTTGT 1.01

Note down switch fluorescence ratio recorded for CCGGGGTCGG 1.04

Note down switch fluorescence ratio recorded for TTGGGTGGC 0.999

Note down switch fluorescence ratio recorded for CACCATAGTG 1.03

Note down switch fluorescence ratio recorded for CTCACTATGA 0.992

Note down switch fluorescence ratio recorded for GTCAGGGTTG 1

Note down switch fluorescence ratio recorded for TTACGGGAAT 1.08

Note down switch fluorescence ratio recorded for CGGGGTAGGT 0.984

Note down switch fluorescence ratio recorded for GGGGACATAA 0.997

Note down switch fluorescence ratio recorded for ATTTGCAAAG 1.12

Note down switch fluorescence ratio recorded for GTAACAGGCG 0.905

Note down switch fluorescence ratio recorded for ACCAAAGGCT 1.03

Note down switch fluorescence ratio recorded for CGATTTGAGG 0.997

Note down switch fluorescence ratio recorded for TCCGGGAGTG 1.08

Note down switch fluorescence ratio recorded for GCGAGGAGTA 1.01

Note down switch fluorescence ratio recorded for CTCGTGCCCG 1.05

Note down switch fluorescence ratio recorded for ATTAAAAGGA 0.991

Note down switch fluorescence ratio recorded for ACCAATGTTC 1.03

Note down switch fluorescence ratio recorded for TTTTTTCGTG 1

Note down switch fluorescence ratio recorded for GAAAGTAACC 1.05

Note down switch fluorescence ratio recorded for TTGGGCATTT 1.05

Note down switch fluorescence ratio recorded for TTCCTGGCGG 1.11

Note down switch fluorescence ratio recorded for AGGTCAGCCT 1.03

Note down switch fluorescence ratio recorded for TTGGAATTGA 0.992

Note down switch fluorescence ratio recorded for GCCATCCTGC 1.05

Note down switch fluorescence ratio recorded for AAAAAAATAG 1.03

Note down switch fluorescence ratio recorded for TAATAAATCT 0.997

Note down switch fluorescence ratio recorded for GTTGGAGGCT 0.989

Note down switch fluorescence ratio recorded for ACCCGTTGCC 1.03

Note down switch fluorescence ratio recorded for TTTCAATAAT 0.988

Note down switch fluorescence ratio recorded for AGCGTCAACG 0.954

Note down switch fluorescence ratio recorded for ATGGAAAAGA 0.978

Note down switch fluorescence ratio recorded for ATAAGGGTTT 0.99

Note down switch fluorescence ratio recorded for ACAAACGTTC 1.34

Note down switch fluorescence ratio recorded for TTTTCGGGAA 1.01

Note down switch fluorescence ratio recorded for TAAAATGAGA 0.98

Note down switch fluorescence ratio recorded for TGACCTCTTA 0.992

Note down switch fluorescence ratio recorded for ACCGTGGCGT 1.02

Note down switch fluorescence ratio recorded for TTACAAGTTT 1.14

Note down switch fluorescence ratio recorded for GCTGCGACCA 1.13

Note down switch fluorescence ratio recorded for GAAGTTATCG 0.982

Note down switch fluorescence ratio recorded for AGCCTAATGG 0.995

Note down switch fluorescence ratio recorded for TTAGTTGGAC 1.03

Note down switch fluorescence ratio recorded for GAAATTTGGT 0.99

Note down switch fluorescence ratio recorded for CGCTACTTGA 1.03

Note down switch fluorescence ratio recorded for GACCATTGGA 1.01

Note down switch fluorescence ratio recorded for ACATATTTGA 1.01

Note down switch fluorescence ratio recorded for TAAACGGTGC 1.07

Note down switch fluorescence ratio recorded for GATTAGCCGG 0.99

Note down switch fluorescence ratio recorded for TCATGAAGGA 0.964

Note down switch fluorescence ratio recorded for AAGTTGCGGG 0.964

Note down switch fluorescence ratio recorded for TTTATAAATG 1.01

Note down switch fluorescence ratio recorded for GCAAAAATGC 1.03

Note down switch fluorescence ratio recorded for TGGGGGAGA 1.04

Note down switch fluorescence ratio recorded for TTAACGTAGA 1.04

Note down switch fluorescence ratio recorded for AAACGCTGCT 1.02

Note down switch fluorescence ratio recorded for ACTCATTTAC 1.21

Note down switch fluorescence ratio recorded for TGGACAAATT 1.02

Note down switch fluorescence ratio recorded for TAAAAAGACG 1.04

Note down switch fluorescence ratio recorded for CGCCATATTT 1.03

Note down switch fluorescence ratio recorded for TTGGCCTCGA 1.01

Note down switch fluorescence ratio recorded for TACTTTTGAA 0.977

Note down switch fluorescence ratio recorded for TTAAGGACGT 0.984

Reference for the values: the supplement of paper PMC10126150
